- ASSAY: Human microsomal stability
- Assay type: in vitro ADME
- SETTINGS: human microsomes, first value of cell; NADPH, 37° C., up to 40 min
OBSERVED_PROPERTY: Microsomal stability (human/rat) Eh

Use the examples below as a reference point.
COMPOUND	Microsomal stability (human/rat) Eh
Cc1ccc(C(=O)Nc2cc(CN3CCCC3)cc(C(F)(F)F)c2)cc1-n1cc(-c2cccnc2)cn1 [Comparative example 1, reference compound]	0.81
Cc1ccc(C(=O)Nc2cc(C(F)(F)F)ccn2)cc1-n1cc(-c2cccnc2)cn1 [Example 1]	0.70
Cc1ccc(C(=O)Nc2cc(C(F)(F)F)cnn2)cc1-n1cc(-c2cccnc2)cn1 [Example 2]	0.56

P = Cc1ccc(C(=O)Nc2cc(CN3CCOCC3)cc(C(F)(F)F)c2)cc1-n1cc(-c2cccnc2)cn1 [Comparative example 2, reference compound]
Q = Cc1ccc(C(=O)Nc2cc(C(F)(F)F)ccn2)cc1-n1cc(-c2cncnc2)cn1 [Example 3]
Q: Response body: label of entry with the larger Microsomal stability (human/rat) Eh; valid values P , Q . Identify your selection by its label.
A: P
(P: 0.96, Q: 0.56)

###

- TEST_TARGET: Ba/F3 cells expressing BCR-ABL (Homo sapiens)
- Construct: BCR (fusion partner, N-terminal portion of BCR); the other entry of the earlier key: BCR (P11274, Breakpoint cluster region protein)
- ASSAY: Ba/F3 CellTiter-Glo Assay
- SETTINGS: 48 h incubation, CellTiter-Glo luminescence
pIC50: −log10 of the molar value.
OBSERVED_PROPERTY: pIC50

P = Cc1ccc(C(=O)Nc2cc(C(F)(F)F)ccn2)cc1-n1cc(-c2cncnc2)cn1
Q = Cc1ccc(C(=O)Nc2cc(C(F)(F)F)ccn2)cc1-n1cc(-c2cnn(C)c2C)cn1
Q: Looking only at measured pIC50, which entry is lower, P or Q ? Indicate your choice by writing its label.
A: Q

###

- TEST_TARGET: Ba/F3 cells expressing BCR-ABL (Homo sapiens)
- Construct: BCR (fusion partner, N-terminal portion of BCR); the other entry of the earlier key: BCR (P11274, Breakpoint cluster region protein)
- Sequence (P00519 229-512 limits assumed): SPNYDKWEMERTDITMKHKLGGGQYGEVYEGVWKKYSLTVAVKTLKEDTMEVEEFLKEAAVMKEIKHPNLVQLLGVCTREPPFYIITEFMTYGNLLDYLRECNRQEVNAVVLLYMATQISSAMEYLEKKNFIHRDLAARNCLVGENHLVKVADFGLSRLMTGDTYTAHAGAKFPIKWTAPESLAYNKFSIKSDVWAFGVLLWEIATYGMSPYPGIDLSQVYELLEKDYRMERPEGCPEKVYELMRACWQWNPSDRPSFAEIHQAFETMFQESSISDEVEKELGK
- ASSAY: Ba/F3 CellTiter-Glo Assay
- SETTINGS: 48 h incubation, CellTiter-Glo luminescence
OBSERVED_PROPERTY: IC50 (nM)

These solved cases illustrate the format of a correct answer.
COMPOUND	QUANTITY_UNIT	RECORDED_MEASUREMENT
CNc1ncc(-c2cnn(-c3cc(C(=O)Nc4cc(C(F)(F)F)ccn4)ccc3C)c2)cn1	nM	54
Cc1ccc(C(=O)Nc2cc(C(F)(F)F)ccn2)cc1-n1cc(-c2cccnc2)cn1	nM	22
Cc1ccc(C(=O)Nc2cc(C(F)(F)F)cnn2)cc1-n1cc(-c2cccnc2)cn1	nM	40
Cc1ccc(C(=O)Nc2cc(C(F)(F)F)ccn2)cc1-n1cc(-c2cncc(F)c2)cn1	nM	29
Cc1ccc(C(=O)Nc2cc(C(F)(F)F)ccn2)cc1-n1cc(-c2cncc(N3CCN(C)CC3)c2)cn1	nM	83

A = Cc1ccc(C(=O)Nc2cc(C(F)(F)F)ccn2)cc1-n1ccc(-c2cccnc2)n1 [Comparative example 4, reference compound]
B = Cc1cncc(-c2cnn(-c3cc(C(=O)Nc4cc(C(F)(F)F)ccn4)ccc3C)c2)c1
Q: Lower value for measured IC50? Options: A , B Indicate your choice by writing its label.
A: B

###

- TEST_TARGET: MDR1 (Homo sapiens, UniProt P08183)
- Construct: expressed in transfected cells; host or cells: MDCK (canine kidney) cells
- Sequence (P08183 whole entry, species assumed): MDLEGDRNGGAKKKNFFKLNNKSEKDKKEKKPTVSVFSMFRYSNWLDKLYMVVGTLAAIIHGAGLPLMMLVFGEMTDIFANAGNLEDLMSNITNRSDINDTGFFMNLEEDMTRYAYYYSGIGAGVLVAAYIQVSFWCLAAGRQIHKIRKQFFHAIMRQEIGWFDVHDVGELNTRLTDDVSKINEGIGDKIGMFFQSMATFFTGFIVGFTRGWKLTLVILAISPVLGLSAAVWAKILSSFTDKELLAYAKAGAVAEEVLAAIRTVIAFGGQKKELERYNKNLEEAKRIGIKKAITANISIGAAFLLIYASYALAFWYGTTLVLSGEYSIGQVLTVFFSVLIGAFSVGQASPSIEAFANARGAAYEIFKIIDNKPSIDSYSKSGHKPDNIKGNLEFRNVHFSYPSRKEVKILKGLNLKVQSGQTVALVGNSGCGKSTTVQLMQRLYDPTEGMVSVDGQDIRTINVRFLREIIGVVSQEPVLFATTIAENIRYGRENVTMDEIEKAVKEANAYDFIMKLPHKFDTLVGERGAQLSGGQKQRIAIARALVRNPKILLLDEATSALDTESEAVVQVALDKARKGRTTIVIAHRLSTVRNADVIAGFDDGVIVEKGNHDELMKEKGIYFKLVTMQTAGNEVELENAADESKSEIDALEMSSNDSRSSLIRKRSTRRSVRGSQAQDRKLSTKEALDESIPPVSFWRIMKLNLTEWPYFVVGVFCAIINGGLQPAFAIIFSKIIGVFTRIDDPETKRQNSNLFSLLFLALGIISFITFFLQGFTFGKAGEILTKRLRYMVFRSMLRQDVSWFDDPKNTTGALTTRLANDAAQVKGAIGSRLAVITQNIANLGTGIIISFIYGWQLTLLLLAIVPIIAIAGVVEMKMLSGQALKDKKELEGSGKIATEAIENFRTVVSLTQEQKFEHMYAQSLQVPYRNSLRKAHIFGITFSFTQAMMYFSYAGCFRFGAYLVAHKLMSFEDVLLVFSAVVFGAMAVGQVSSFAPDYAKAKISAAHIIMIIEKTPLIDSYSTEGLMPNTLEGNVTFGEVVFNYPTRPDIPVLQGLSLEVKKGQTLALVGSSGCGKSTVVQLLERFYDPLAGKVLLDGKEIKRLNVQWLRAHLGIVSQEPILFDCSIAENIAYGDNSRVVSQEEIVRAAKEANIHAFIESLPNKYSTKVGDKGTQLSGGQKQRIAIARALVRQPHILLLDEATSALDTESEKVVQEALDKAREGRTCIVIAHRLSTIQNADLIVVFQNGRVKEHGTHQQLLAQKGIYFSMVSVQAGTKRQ
- ASSAY: MDR1-MDCK effective efflux ratio
- Type: in vitro ADME
- SETTINGS: MDR1-MDCK relative to wild-type MDCK, 1 μM, 60 minutes, pH 7.4
OBSERVED_PROPERTY: MDCK MDR1 EER

Some compounds with known MDCK MDR1 EER results, for comparison:
COMPOUND	MDCK MDR1 EER
Cc1ccc(C(=O)Nc2cc(C(F)(F)F)ccn2)cc1-n1cc(-c2cccnc2)cn1	1
Cc1ccc(C(=O)Nc2ccc(CN3CCN(C)CC3)c(C(F)(F)F)c2)cc1-n1cc(-c2cnc(N)nc2)nn1 [compound 5, reference compound]	4.3
Cc1ccc(C(=O)Nc2cc(CN3CCOCC3)cc(C(F)(F)F)c2)cc1-n1cc(-c2cccnc2)cn1 [Comparative example 2, reference compound]	6.5
Cc1ccc(C(=O)Nc2cc(C(F)(F)F)ccn2)cc1-n1cc(-c2cnn(C)c2C)cn1	1.2

I = Cc1ccc(C(=O)Nc2cc(C(F)(F)F)cnn2)cc1-n1cc(-c2cccnc2)nn1 [compound 3, reference compound]
II = Cc1ccc(C(=O)Nc2cc(C(F)(F)F)ccn2)cc1-n1cc(-c2cncc(F)c2)cn1
III = CNc1ncc(-c2cnn(-c3cc(C(=O)Nc4cc(C(F)(F)F)ccn4)ccc3C)c2)cn1
Q: Please rank these compounds by MDCK MDR1 EER in descending order. Form entry: ranked labels (order as requested).
A: I, II, III

###

- ASSAY: Rat microsomal stability
- Assay type: in vitro ADME
- SETTINGS: rat microsomes, second value of cell; NADPH, 37° C., up to 40 min
OBSERVED_PROPERTY: Microsomal stability (human/rat) Eh

// solved cases for Microsomal stability (human/rat) Eh follow
COMPOUND	Microsomal stability (human/rat) Eh
Cc1ccc(C(=O)Nc2cc(CN3CCOCC3)cc(C(F)(F)F)c2)cc1-n1cc(-c2cccnc2)cn1 [Comparative example 2, reference compound]	0.99
Cc1ccc(C(=O)Nc2cc(C(F)(F)F)ccn2)cc1-n1cc(-c2cncnc2)cn1	0.44
Cc1ccc(C(=O)Nc2cc(C(F)(F)F)cnn2)cc1-n1cc(-c2cccnc2)cn1	0.67
Cc1ccc(C(=O)Nc2cc(C(F)(F)F)cc(C#N)n2)cc1-n1cc(-c2cccnc2)cn1	0.65
Cc1ccc(C(=O)Nc2cc(C(F)(F)F)ccn2)cc1-n1cc(-c2cccnc2)cn1	0.69

I = Cc1ccc(C(=O)Nc2cc(C(F)(F)F)ccn2)cc1-n1cc(-c2cnn(C)c2C)cn1
II = Cc1ccc(C(=O)Nc2cc(CN3CCCC3)cc(C(F)(F)F)c2)cc1-n1cc(-c2cccnc2)cn1 [Comparative example 1, reference compound]
Q: Could you kindly indicate whether I or II has the higher Microsomal stability (human/rat) Eh value? Please respond with the label that marks your chosen entry.
A: II
(II: 0.93, I: 0.60)

###

- TEST_TARGET: MDR1 (Homo sapiens, UniProt P08183)
- Construct: expressed in transfected cells; host or cells: MDCK (canine kidney) cells
- ASSAY: MDR1-MDCK effective efflux ratio
- Assay type: in vitro ADME
- SETTINGS: MDR1-MDCK relative to wild-type MDCK, 1 μM, 60 minutes, pH 7.4
OBSERVED_PROPERTY: MDCK MDR1 EER

Example results:
COMPOUND	MDCK MDR1 EER
Cc1cncc(-c2cnn(-c3cc(C(=O)Nc4cc(C(F)(F)F)ccn4)ccc3C)c2)c1	1.2
Cc1ccc(C(=O)Nc2cc(C(F)(F)F)ccn2)cc1-n1cc(-c2cncnc2)cn1	1.0

a = Cc1ccc(C(=O)Nc2cc(C(F)(F)F)c(CN3CCN(C)CC3)cn2)cc1-n1cc(-c2cccnc2)cn1 [compound 6, reference compound]
b = COc1cncc(-c2cnn(-c3cc(C(=O)Nc4cc(C(F)(F)F)ccn4)ccc3C)c2)c1
c = Cc1ccc(C(=O)Nc2cc(C(F)(F)F)cnn2)cc1-n1cc(-c2cccnc2)cn1
Q: Please order the records by their reported MDCK MDR1 EER, lowest number first. I'd appreciate it if you listed the labels in the requested order.
A: b, c, a
(b: 1.2, c: 2.9, a: 15.8)

###

- TEST_TARGET: BCRP (Homo sapiens, UniProt Q9UNQ0)
- Construct: expressed in transfected cells; host or cells: MDCK (canine kidney) cells
- Sequence (Q9UNQ0 whole entry, species assumed): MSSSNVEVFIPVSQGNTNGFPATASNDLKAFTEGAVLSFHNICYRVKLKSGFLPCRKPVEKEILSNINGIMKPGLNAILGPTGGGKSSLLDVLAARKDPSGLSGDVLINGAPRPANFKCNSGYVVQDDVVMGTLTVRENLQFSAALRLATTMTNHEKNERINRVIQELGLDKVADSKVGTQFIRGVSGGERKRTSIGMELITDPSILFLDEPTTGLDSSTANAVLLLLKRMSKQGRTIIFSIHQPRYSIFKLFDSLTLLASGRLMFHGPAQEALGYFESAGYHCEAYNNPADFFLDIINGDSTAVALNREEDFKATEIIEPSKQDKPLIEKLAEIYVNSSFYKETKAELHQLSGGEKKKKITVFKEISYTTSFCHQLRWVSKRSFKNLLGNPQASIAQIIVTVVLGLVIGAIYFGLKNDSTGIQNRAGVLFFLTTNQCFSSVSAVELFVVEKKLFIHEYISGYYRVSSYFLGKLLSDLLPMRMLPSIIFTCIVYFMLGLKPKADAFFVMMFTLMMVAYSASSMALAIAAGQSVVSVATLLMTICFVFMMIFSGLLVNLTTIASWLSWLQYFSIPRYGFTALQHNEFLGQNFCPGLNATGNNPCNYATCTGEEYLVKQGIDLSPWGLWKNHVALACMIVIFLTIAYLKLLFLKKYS
- ASSAY: BCRP-MDCK effective efflux ratio
- Assay type: in vitro ADME
- SETTINGS: BCRP-MDCK relative to wild-type MDCK, 1 μM, 60 minutes, pH 7.4
OBSERVED_PROPERTY: MDCK BCRP EER

Cc1ccc(C(=O)Nc2cc(C(F)(F)F)ccn2)cc1-n1cc(-c2cnn(C)c2C)cn1 1.3
CNc1ncc(-c2cnn(-c3cc(C(=O)Nc4cc(C(F)(F)F)ccn4)ccc3C)c2)cn1 1.0
Cc1ccc(C(=O)Nc2cc(C(F)(F)F)ccn2)cc1-n1cc(-c2cncnc2)cn1 1.0
Cc1ccc(C(=O)Nc2cc(C(F)(F)F)cnn2)cc1-n1cc(-c2cccnc2)cn1 1.5
Cc1ccc(C(=O)Nc2cc(C(F)(F)F)ccn2)cc1-n1cc(-c2cncc(F)c2)cn1 1.1

Value source: patent US20240076284A1
